- System: DU-145 prostate
- Test protocol: NCI-60 one-dose screen, 48 h
- Condition description: 10 µM unless noted
Compounds without any hit were thinned out: in the full panel of roughly 83,000, 20% have a hit. Calls of active or inactive are those of the source. The calls were made as follows: active = growth percent below 10; inactive = the rest.
Write down the outcome that applies. Available outcomes: 1 = active, -1 = inactive

Known results for compounds:
# Mol smiles, Assigned category
records = [
    ("CC1=C([Te]c2ccc(O)cc2)C(=O)c2ccccc2C1=O", 1),
    ("ClCCN(CCCl)c1ccc(/C=N\\N=C\\c2ccc(N(CCCl)CCCl)cc2)cc1", -1),
    ("C[C@@]12CC=C3c4nc(Nc5cccc(O)c5)sc4CC[C@]3(C)[C@H]1CC[C@]1(C)C(=O)CC[C@@H]21", -1),
    ("CCCCCCCCCCCCCCCCCCOc1ccccc1COP(=O)(O)OOCC[N+](C)(C)C", 1),
    ("CN(CCCCN(C)CCOS(C)(=O)=O)CCOS(C)(=O)=O", -1),
]

## Task Just curious, what result did "Cc1ccc(Nc2nc3c(s2)C2=CC[C@@H]4[C@H](CC[C@]5(C)C(=O)CC[C@@H]45)[C@@]2(C)CC3)cc1" get here?
## Result -1

## Task State the result this test recorded for "C[C@@]1(CCCCCCCCCc2ccc(O)cc2)C[C@]2(C)OC(=O)C[C@@H]2OO1" .
## Result -1

## Task Called result for "CC[C@H](C)[C@H](NC(=O)c1ccccn1)C(=O)N(C)[C@H](C[C@@H](OC(C)=O)c1nc(C(=O)N[C@@H](Cc2ccccc2)C[C@H](C)C(=O)OC)cs1)C(C)C"
## Result 1

## Task Please indicate how the test categorized "CC(=O)Oc1ccccc1C(=O)NCCC[Se]C#N" .
## Result 1

====

- Tested on: SR leukemia
- Test protocol: NCI-60 one-dose screen, 48 h (100 = growth as untreated, 0 = no growth, -100 = all killed)
- Condition description: 10 µM unless noted
- Method: Growth inhibition of the SR human tumor cell line is measured as a screen for anti-cancer activity. Cells are grown in 96 well plates and exposed to the test compound for 48 hours. Compounds are tested at a single concentration, which is 10^-5 M for most compounds. The reported endpoint is percent growth (GI% or GIPRCNT), where numbers from 0 - 100% represent growth inhibition, and numbers from -100% - 0 represent cell death. For example, a value of 40 represents 60% growth inhibition. […]
This is part of a sample that, as a whole, favours compounds with a hit. Of some 83,000 tested, about 20% had one in any assay.
Measurement type: growth (%)
Numeric only. Scale: %

Previously resolved entries follow.
# Molecule, Assayed system, Endpoint result
rows = [
    ("CC(=O)O[C@H](C[C@H](C(C)C)N(C)C(=O)[C@@H](NC(=O)[C@H]1CCCCN1C)C(C)C)c1cccc(C(=O)N[C@@H](Cc2ccccc2)C[C@H](C)C(=O)O)n1", "SR leukemia", 6.32),
    ("CCOP(=O)(Cc1ccc(C#N)cc1)OCC", "SR leukemia", 89),
]

## Task Provide growth, tested on SR leukemia, for "COC(=O)[C@@H](C)C[C@H](Cc1ccccc1)NC(=O)c1csc([C@@H](C[C@H](C(C)C)N(C)C(=O)C2(NC(=O)[C@H]3CCCCN3C)CCC2)OC(C)=O)n1" .
## Result 5.54

## Task Give growth; test system SR leukemia; molecule "O=C(O)c1c(Cl)n(Cc2ccc(O)cc2)c2ccc(O)cc12"
## Result 106

## Task Give growth only, for "CCOc1ccccc1C(=O)OCC(Cl)(Cl)Cl" , using SR leukemia data.
## Result 93.9

## Task State measured growth of the molecule "Fc1ccc2c(c1)c(-c1nc(-c3c[nH]c4ncccc34)cs1)cn2CCN1CCOCC1" with SR leukemia.
## Result 39.7

## Task Report value: growth, system: SR leukemia, molecule: "COc1ccc2c(c1)c(-c1nc(-c3c[nH]c4ncccc34)cs1)cn2CCN1CCOCC1"
## Result 45.5

## Task Look up and report growth, with SR leukemia as system, for O=[N+]([O-])c1ccc(OP(=O)(CCl)N(CCCl)CCCl)cc1 (stereo not given)
## Result 87.9

## Task Report value: growth, system: SR leukemia, molecule: "O=C(N/N=C\c1ccc(N(CCCl)CCCl)cc1Cl)c1cccnc1"
## Result 99.5

## Task Recall the reported growth of "Cc1ccc(C(=O)NCCCOc2ccc(N)cc2Cl)cc1S(=O)(=O)F" on SR leukemia and write it down.
## Result 87.9

====

- Test system: HCT-116 colon
- Test protocol: NCI-60 one-dose screen, 48 h
- Condition description: 10 µM unless noted
The panel holds about 83,000 compounds, 20% with a hit somewhere; the sample as a whole holds those more often. Active and inactive are the calls of the source. Rule for the calls: active = growth percent below 10; inactive = the rest.
Assign a class; possible classes are YES (active), NO (inactive)

Illustrative cases are given below, each with its answer.
# Compound, Assigned category
data = [
    ("CCN(CC)CCOC(=O)C(OC(C)C)(c1ccccc1)c1ccccc1", "NO"),
    ("CNC(=O)Oc1ccc2c(c1)OCO2", "NO"),
    ("CC[C@H](C)[C@H](NC(=O)[C@H]1CCCCN1C)C(=O)N(C)[C@H](C[C@@H](OC(C)=O)c1nc(C(=O)NC23CC(C(=O)OC)(C2)C3)cs1)C(C)C", "YES"),
    ("Nc1nc([Se])c2ncn(C3OC(CO)C(O)C3O)c2n1 (stereo not given)", "NO"),
    ("CCOC(=O)CCN(C)C1=Nc2ccc(Cl)cc2C(c2ccccc2)=[N+]([O-])C1", "NO"),
    ("O=C1C(N2CC2)=C(N2CC2)C(=O)C(N2CC2)=C1N1CC1", "YES"),
]

Query compound follows.
## Task Tell me the recorded outcome of this test for "CCNc1nc(Cl)nc(NCC)n1" .
## Result NO

====

# maps each entry to its growth
- Test system: SNB-75 CNS
- Test protocol: NCI-60 one-dose screen, 48 h (100 = growth as untreated, 0 = no growth, -100 = all killed)
- Condition description: 10 µM unless noted
This is part of a sample that, as a whole, favours compounds with a hit. Of some 83,000 tested, about 20% had one in any assay.
Supply the numeric figure in %, leaving out any unit text.

# Compound, Assayed system, Measurement type, Endpoint unit, Endpoint result
records = [
    ("COC(=O)[C@@H](C)C[C@H](Cc1ccccc1)NC(=O)c1csc([C@@H](C[C@H](C(C)C)N(C)C(=O)[C@H](C)NC(=O)[C@H]2CCCCN2C)OC(C)=O)n1", "SNB-75 CNS", "growth", "%", 18.1),
]

## Task For SNB-75 CNS, give the measured growth of the entry "CCCCCCCCOC(=O)CCN1CC1"
## Result 110

## Task Return reported growth for target or system SNB-75 CNS, item COC(C(=O)[C@@H](O)[C@@H](C)O)[C@@H]1Cc2cc3cc(O[C@H]4C[C@@H](O[C@H]5C[C@@H](O)[C@H](O)C(C)O5)[C@H](O)C(C)O4)c(C)c(O)c3c(O)c2C(=O)[C@H]1O[C@H]1C[C@@H](O[C@H]2C[C@@H](O[C@H]3C[C@@H](O)[C@@H](O)C(C)O3)[C@@H](O)C(C)O2)[C@H](O)C(C)O1 (stereo partly drawn) .
## Result -31.8

## Task Please look at "COc1cc(C=Nc2cccc(Br)c2)ccc1N(CCCl)CCCl" and tell me its recorded growth on SNB-75 CNS.
## Result 69.1

## Task # return growth for "COc1cc2ncnc(Nc3ccc(F)c(Cl)c3)c2cc1OCC(=O)N1CCN(C)CC1" , test system: SNB-75 CNS
## Result 92.2

## Task Output reported growth of the compound "CN1C(=O)C(=Cc2cn(CCCCCCn3c4ccccc4c(=O)c4ccccc43)c3ccccc23)C(=O)N(C)C1=O" on SNB-75 CNS.
## Result 91.4

## Task Given "Cc1cc(N(CCCl)CCCl)ccc1C=Nc1ccc(-c2csc(Cc3ccccc3)n2)cc1" , report its growth on SNB-75 CNS.
## Result 50.3

## Task Output reported growth of the compound "OCc1ccc2c(c1)OCO2" on SNB-75 CNS.
## Result 84.5

====

- Tested on: OVCAR-5 ovarian
- Test protocol: NCI-60 one-dose screen, 48 h (100 = growth as untreated, 0 = no growth, -100 = all killed)
- Condition description: 10 µM unless noted
Compounds without any hit were thinned out: in the full panel of roughly 83,000, 20% have a hit.
Listed below: growth values for each entry.
Numbers only here, please. The scale is %.

Consider the worked cases shown below.
# Compound, Assayed system, growth [%]
rows = [
    ("CNC12C3C4C1C1C2C3C41C(=O)N[C@H](C(=O)N(C)[C@H](C[C@@H](OC(C)=O)c1nc(C(=O)N[C@@H](Cc2ccccc2)C[C@H](C)C(=O)OC)cs1)C(C)C)C1CC1 (some centres not stated)", "OVCAR-5 ovarian", 56.6),
    ("COc1ccc(/C=C\\c2cc(OC)c(OC)c(OC)c2)cc1OCC(=O)Nc1nc2ccc(F)cc2s1", "OVCAR-5 ovarian", 92.4),
    ("COC(=O)[C@@H](C)C[C@H](Cc1ccc(F)cc1)NC(=O)c1csc([C@@H](C[C@H](C(C)C)N(C)C(=O)[C@@H](NC(=O)[C@H]2CCCCN2C)C2CC2)OC(C)=O)n1", "OVCAR-5 ovarian", 49.8),
    ("CN(C)C(=O)Oc1ccc(Br)cc1", "OVCAR-5 ovarian", 106),
    ("COC(=O)[C@@H](C)C[C@H](Cc1ccccc1)NC(=O)c1csc([C@@H](C[C@H](C(C)C)N(C)C(=O)[C@H](C)NC(=O)[C@H]2CCCCN2C)OC(C)=O)n1", "OVCAR-5 ovarian", 63.7),
]

## Task Consider the compound "COC(=O)C12CC(NC(=O)c3csc([C@@H](C[C@H](C(C)C)N(C)C(=O)[C@@H](NC(=O)[C@H]4CCCCN4C)C4CC4)OC(C)=O)n3)(C1)C2" . State its measured growth.
## Result 35.7

## Task Recall and state the measured growth for "COC(=O)N[C@H]1CCc2c(Br)c(OC)c(OC)c(OC)c2-c2ccc(SC)c(=O)cc21" .
## Result 35.9
